- tested_on: Fibroblast growth factor receptor 2 (Homo sapiens) (UniProt P21802)
- Sequence (P21802 22-821 limits assumed): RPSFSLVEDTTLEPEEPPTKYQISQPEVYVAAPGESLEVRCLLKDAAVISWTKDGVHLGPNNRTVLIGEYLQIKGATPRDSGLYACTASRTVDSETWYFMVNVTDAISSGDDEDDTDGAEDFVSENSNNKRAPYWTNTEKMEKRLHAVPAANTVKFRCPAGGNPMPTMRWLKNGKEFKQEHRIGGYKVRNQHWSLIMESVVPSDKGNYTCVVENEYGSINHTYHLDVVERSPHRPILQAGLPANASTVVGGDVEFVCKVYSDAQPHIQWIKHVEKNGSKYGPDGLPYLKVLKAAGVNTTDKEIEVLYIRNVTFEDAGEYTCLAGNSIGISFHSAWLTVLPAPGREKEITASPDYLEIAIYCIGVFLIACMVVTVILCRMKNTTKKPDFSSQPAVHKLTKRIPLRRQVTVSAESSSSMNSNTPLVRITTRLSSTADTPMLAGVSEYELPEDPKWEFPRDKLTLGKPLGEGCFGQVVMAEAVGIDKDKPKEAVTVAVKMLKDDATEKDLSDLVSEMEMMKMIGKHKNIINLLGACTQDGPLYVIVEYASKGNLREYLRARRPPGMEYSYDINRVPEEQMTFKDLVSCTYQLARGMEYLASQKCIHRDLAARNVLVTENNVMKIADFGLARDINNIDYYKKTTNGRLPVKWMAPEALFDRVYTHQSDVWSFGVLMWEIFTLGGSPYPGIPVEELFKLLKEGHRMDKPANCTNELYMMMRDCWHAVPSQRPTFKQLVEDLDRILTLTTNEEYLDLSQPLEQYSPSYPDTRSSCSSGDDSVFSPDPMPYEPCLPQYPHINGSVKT
- test_name: Inhibition of His-tagged human recombinant FGFR2 (403 to 822 residues) expressed in baculovirus using Fluorescein-Poly GT as substrate at 100 nM
measurement_type: inhibition (%)

// known answers, use as guide
For the molecule COC(=O)c1cc2cc(NCc3cc(NC(=O)c4cc(N(C)C)cc(C(F)(F)F)c4)ccc3C)cnc2[nH]1 , give its measured inhibition value.
5

For the molecule COC(=O)c1cc2cc(NCc3cc(NC(=O)c4ccc(-c5csc(C)n5)cc4)ccc3C)cnc2[nH]1 , give its measured inhibition value.
-1

For the molecule COC(=O)c1cc2cc(NCc3cc(NC(=O)c4ccc(O)c(C(F)(F)F)c4)ccc3C)cnc2[nH]1 , give its measured inhibition value.
3

For the molecule COC(=O)c1cc2cc(NCc3cc(NC(=O)Cc4ccccc4Br)ccc3C)cnc2[nH]1 , give its measured inhibition value.
8

P = COC(=O)c1cc2cc(NCc3cc(NC(=O)c4cc[nH]c4)ccc3C)cnc2[nH]1
Q = COC(=O)c1cc2cc(NCc3cc(NC(=O)c4cccc(C)c4)ccc3C)cnc2[nH]1
R = CC(=O)c1cc2cc(NCc3cc(NC(=O)c4ccc(CN5CCC(N(C)C)C5)c(C(F)(F)F)c4)ccc3C)cnc2[nH]1 (stereo not drawn)
S = CNC(=O)c1cc2cc(NCc3cc(NC(=O)c4ccc(CN5CCC(N(C)C)C5)c(C(F)(F)F)c4)ccc3C)cnc2[nH]1 (stereo not drawn)
Exam item: list the entries in increasing order of inhibition. Returns: the labels arranged in the requested order.
P, Q, R, S

---

- tested_on: Epidermal growth factor receptor (Homo sapiens, UniProt P00533, T790M)
- Sequence (P00533 25-1210 T790M limits assumed): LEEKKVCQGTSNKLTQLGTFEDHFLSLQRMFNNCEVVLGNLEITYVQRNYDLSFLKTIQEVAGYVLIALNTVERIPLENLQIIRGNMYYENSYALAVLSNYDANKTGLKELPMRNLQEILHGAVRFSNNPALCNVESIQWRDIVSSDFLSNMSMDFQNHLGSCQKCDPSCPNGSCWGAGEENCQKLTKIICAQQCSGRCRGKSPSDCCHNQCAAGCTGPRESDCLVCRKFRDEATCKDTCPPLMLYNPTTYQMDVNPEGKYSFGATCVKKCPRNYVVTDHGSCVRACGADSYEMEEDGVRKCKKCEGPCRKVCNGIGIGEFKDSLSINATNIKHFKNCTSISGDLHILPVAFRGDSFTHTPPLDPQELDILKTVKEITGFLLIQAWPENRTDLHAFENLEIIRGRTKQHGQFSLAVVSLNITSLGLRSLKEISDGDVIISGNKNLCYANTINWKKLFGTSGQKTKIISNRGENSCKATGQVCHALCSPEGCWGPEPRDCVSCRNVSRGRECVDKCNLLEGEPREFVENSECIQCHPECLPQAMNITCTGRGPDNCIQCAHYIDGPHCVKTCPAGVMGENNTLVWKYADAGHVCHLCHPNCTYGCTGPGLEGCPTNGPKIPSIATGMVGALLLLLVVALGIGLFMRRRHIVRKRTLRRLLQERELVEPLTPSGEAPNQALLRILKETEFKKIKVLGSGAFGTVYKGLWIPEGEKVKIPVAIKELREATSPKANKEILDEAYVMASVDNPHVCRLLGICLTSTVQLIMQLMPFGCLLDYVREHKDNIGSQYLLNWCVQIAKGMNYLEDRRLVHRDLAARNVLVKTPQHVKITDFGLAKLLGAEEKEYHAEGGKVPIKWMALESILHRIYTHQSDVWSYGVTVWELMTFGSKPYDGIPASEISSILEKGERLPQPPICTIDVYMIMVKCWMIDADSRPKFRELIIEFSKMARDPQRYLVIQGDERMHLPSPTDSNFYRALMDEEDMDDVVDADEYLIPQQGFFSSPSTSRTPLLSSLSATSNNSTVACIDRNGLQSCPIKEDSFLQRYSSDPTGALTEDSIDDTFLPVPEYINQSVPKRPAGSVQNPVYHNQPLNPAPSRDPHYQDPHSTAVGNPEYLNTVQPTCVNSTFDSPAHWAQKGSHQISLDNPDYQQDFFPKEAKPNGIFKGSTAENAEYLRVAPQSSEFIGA
- test_name: Inhibition of GST-tagged human recombinant EGFR T790M mutant (668 to 1210 residues) expressed in baculovirus using Fluorescein-Poly GT as substrate
measurement_type: pIC50
Please report pIC50 as the negative decimal logarithm of the molar concentration, giving only the number.

Give pIC50 only, for COC(=O)c1cc2cc(NCc3cc(NC(=O)c4cc(-n5cnc(C)c5)cc(C(F)(F)F)c4)ccc3C)cnc2[nH]1 , using Epidermal growth factor receptor (Homo sapiens, UniProt P00533, T790M) data.
6.95

---

- tested_on: Fibroblast growth factor receptor 2 (Homo sapiens) (UniProt P21802)
- test_name: Inhibition of His-tagged human recombinant FGFR2 (403 to 822 residues) expressed in baculovirus using Fluorescein-Poly GT as substrate at 100 nM
measurement_type: inhibition (%)

Give inhibition only, for COC(=O)c1cc2cc(NCc3cc(NC(=O)c4cncc(C(F)(F)F)c4)ccc3C)cnc2[nH]1 , using Fibroblast growth factor receptor 2 (Homo sapiens) (UniProt P21802) data.
13

P = COC(=O)c1cc2cc(NCc3cc(NC(=O)c4cccc(Br)c4)ccc3C)cnc2[nH]1
Q = COC(=O)c1cc2cc(CNc3cc(NC(=O)c4ccc(CN5CCN(C)CC5)cc4)ccc3C)cnc2[nH]1
Please state the entry with greater inhibition among P and Q . Give the label under which the chosen entry appears.
Q

---

- Tested on: NCI-H1975
- test_name: Antiproliferative activity against human NCI-H1975 cells harboring EGFR L858R/T790M double mutant after 72 hrs by MTT assay
- Assay type: functional, cell-based
- details: NCI-H1975, 72 h
measurement_type: EC50 (nM)

Give EC50 only, for COC(=O)c1cc2cc(NCc3cc(NC(=O)c4cc(-n5cnc(C)c5)cc(C(F)(F)F)c4)ccc3C)cnc2[nH]1 , using NCI-H1975 data.
104

A = CN(C)C/C=C/C(=O)Nc1cc2c(Nc3ccc(F)c(Cl)c3)ncnc2cc1O[C@H]1CCOC1 [AFATINIB]
B = Cc1nc(Nc2ncc(C(=O)Nc3c(C)cccc3Cl)s2)cc(N2CCN(CCO)CC2)n1 [DASATINIB]
Which gives the smaller EC50 number: A or B ? Give the label under which the chosen entry appears.
A
(A: 116 nM, B: 173 nM)

---

- tested_on: Serine/threonine-protein kinase B-raf (Homo sapiens) (UniProt P15056)
- Sequence (P15056 whole entry): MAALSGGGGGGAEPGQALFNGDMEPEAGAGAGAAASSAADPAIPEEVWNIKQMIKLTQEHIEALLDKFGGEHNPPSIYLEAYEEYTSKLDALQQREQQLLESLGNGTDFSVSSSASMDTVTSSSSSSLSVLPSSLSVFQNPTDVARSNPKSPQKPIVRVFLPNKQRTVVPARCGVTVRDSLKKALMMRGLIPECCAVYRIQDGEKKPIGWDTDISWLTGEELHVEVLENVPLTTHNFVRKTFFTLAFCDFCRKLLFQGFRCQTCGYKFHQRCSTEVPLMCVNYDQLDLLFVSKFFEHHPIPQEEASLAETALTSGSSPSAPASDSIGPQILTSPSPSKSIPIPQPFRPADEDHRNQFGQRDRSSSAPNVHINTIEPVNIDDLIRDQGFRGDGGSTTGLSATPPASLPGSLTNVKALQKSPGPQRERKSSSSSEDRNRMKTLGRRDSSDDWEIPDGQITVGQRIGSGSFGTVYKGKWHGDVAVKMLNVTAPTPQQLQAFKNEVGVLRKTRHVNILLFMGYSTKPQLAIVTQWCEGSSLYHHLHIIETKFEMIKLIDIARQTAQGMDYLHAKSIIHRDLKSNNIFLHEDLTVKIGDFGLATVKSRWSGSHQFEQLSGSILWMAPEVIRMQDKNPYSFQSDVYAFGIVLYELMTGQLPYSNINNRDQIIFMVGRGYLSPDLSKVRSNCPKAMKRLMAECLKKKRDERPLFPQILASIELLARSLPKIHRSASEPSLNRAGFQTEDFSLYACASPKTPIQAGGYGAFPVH
- test_name: Inhibition of full length GST-tagged human recombinant BRAF expressed in baculovirus using Fluorescein-MAP2K1 as substrate at 100 nM
measurement_type: inhibition (%)

// known answers, use as guide
For the compound COC(=O)c1cc2cc(NCc3cc(NC(=O)Cc4cccc(C(F)(F)F)c4)ccc3C)cnc2[nH]1 , give its measured inhibition value.
61

For the compound COC(=O)c1cc2cc(NCc3cc(NC(=O)c4ccc5[nH]ccc5c4)ccc3C)cnc2[nH]1 , give its measured inhibition value.
65

For the compound COC(=O)c1cc2cc(NCc3cc(NC(=O)Cc4ccccc4Br)ccc3C)cnc2[nH]1 , give its measured inhibition value.
71

A = COC(=O)c1cc2cc(NCc3cc(NC(=O)c4ccc(O)c(C(F)(F)F)c4)ccc3C)cnc2[nH]1
B = COC(=O)c1cc2cc(COc3cc(NC(=O)c4ccc(CN5CCC(N(C)C)C5)c(C(F)(F)F)c4)ccc3C)cnc2[nH]1 (stereo not drawn)
Which gives the smaller inhibition number: A or B ? Give the label under which the chosen entry appears.
B

P = Cc1ccc(NC(=O)c2ccc(CN3CCC(N(C)C)C3)c(C(F)(F)F)c2)cc1CNc1cnc2[nH]c(C(=O)O)cc2c1 (stereo not drawn)
Q = COC(=O)c1cc2cc(NCc3cc(NC(=O)c4cc[nH]c4)ccc3C)cnc2[nH]1
Which gives the smaller inhibition number: P or Q ? Give the label under which the chosen entry appears.
P
(P: 33%, Q: 51%)

---

- tested_on: Serine/threonine-protein kinase B-raf (Homo sapiens)
- test_name: Inhibition of full length GST-tagged human recombinant BRAF expressed in baculovirus using Fluorescein-MAP2K1 as substrate at 100 nM
measurement_type: inhibition (%)

1 = CNC(=O)c1cc2cc(NCc3cc(NC(=O)c4ccc(CN5CCC(N(C)C)C5)c(C(F)(F)F)c4)ccc3C)cnc2[nH]1 (stereo not drawn)
2 = CC(=O)c1cc2cc(NCc3cc(NC(=O)c4cc(-n5cnc(C)c5)cc(C(F)(F)F)c4)ccc3C)cnc2[nH]1
3 = COC(=O)c1cc2cc(/C=C/c3cc(NC(=O)c4ccc(CN5CCC(N(C)C)C5)c(C(F)(F)F)c4)ccc3C)cnc2[nH]1 (stereo not drawn)
4 = COC(=O)c1cc2cc(NCc3cc(NC(=O)c4ccc(C)c(C(F)(F)F)c4)ccc3C)cnc2[nH]1
Order the records by inhibition, with each subsequent value no larger than the one before. Returns: the labels arranged in the requested order.
1, 2, 3, 4
(1: 93%, 2: 55%, 3: 33%, 4: 16%)

1 = COC(=O)c1cc2cc(NCc3cc(NC(=O)c4ccc5c(c4)OCO5)ccc3C)cnc2[nH]1
2 = COC(=O)c1cc2cc(NCc3cc(NC(=O)c4ccc(-c5csc(C)n5)cc4)ccc3C)cnc2[nH]1
Please state the entry with greater inhibition among 1 and 2 . Give the label under which the chosen entry appears.
1

---

Below, each of the compounds is paired with its reported EC50 value.
- test_name: Antiproliferative activity against human PC3 cells after 72 hrs by MTT assay
- Format: functional, cell-based
- details: PC-3, 72 h
Report the value in nM with no unit label.

For the compound Cc1nc(Nc2ncc(C(=O)Nc3c(C)cccc3Cl)s2)cc(N2CCN(CCO)CC2)n1 , give its measured EC50 value.
232

Consider the additional compound presented here.
For the compound COC(=O)c1cc2cc(NCc3cc(NC(=O)c4cc(-n5cnc(C)c5)cc(C(F)(F)F)c4)ccc3C)cnc2[nH]1 , give its measured EC50 value.
152

---

- tested_on: Bcr/Abl fusion protein (Homo sapiens, UniProt P00519, T315I)
measurement_type: pEC50
Please report pEC50 as the negative decimal logarithm of the molar concentration, giving only the number.

Give pEC50 only, for COC(=O)c1cc2cc(NCc3cc(NC(=O)c4cc(-n5cnc(C)c5)cc(C(F)(F)F)c4)ccc3C)cnc2[nH]1 , using Bcr/Abl fusion protein (Homo sapiens, UniProt P00519, T315I) data.
8.74

---

- tested_on: Fibroblast growth factor receptor 2 (Homo sapiens) (UniProt P21802)
- test_name: Inhibition of His-tagged human recombinant FGFR2 (403 to 822 residues) expressed in baculovirus using Fluorescein-Poly GT as substrate at 100 nM
measurement_type: inhibition (%)

// known answers, use as guide
For the compound COC(=O)c1cc2cc(NCc3cc(NC(=O)c4ccc(C)c(C(F)(F)F)c4)ccc3C)cnc2[nH]1 , give its measured inhibition value.
10

For the compound COC(=O)c1cc2cc(NCc3cc(NC(=O)c4ccnc(C)c4)ccc3C)cnc2[nH]1 , give its measured inhibition value.
-6

For the compound Cc1ccc(NC(=O)c2ccc(CN3CCN(C)CC3)cc2)cc1CNc1cnc2[nH]c(C(=O)O)cc2c1 , give its measured inhibition value.
14

P = CC(=O)c1cc2cc(NCc3cc(NC(=O)c4cc(-n5cnc(C)c5)cc(C(F)(F)F)c4)ccc3C)cnc2[nH]1
Q = COC(=O)c1cc2cc(NCc3cc(NC(=O)c4ccc(Cl)c(C(F)(F)F)c4)ccc3C)cnc2[nH]1
R = COC(=O)c1cc2cc(CCc3cc(NC(=O)c4ccc(CN5CCC(N(C)C)C5)c(C(F)(F)F)c4)ccc3C)cnc2[nH]1 (stereo not drawn)
S = CNC(=O)c1cc2cc(NCc3cc(NC(=O)c4ccc(CN5CCN(C)CC5)cc4)ccc3C)cnc2[nH]1
T = Cc1cn(-c2cc(C(=O)Nc3ccc(C)c(CNc4cnc5[nH]c(C(=O)O)cc5c4)c3)cc(C(F)(F)F)c2)cn1
Task field, ranking: reported inhibition, descending order. Returns: the labels arranged in the requested order.
R, T, S, P, Q
(R: 101%, T: 49%, S: 23%, P: 13%, Q: 5%)
